system: Plasmodium berghei (strain ANKA); assay: activity against Plasmodium berghei in vivo (infected mice); settings: mice, single administration po, dose reducing average erythrocyte infection rate by 50%, read-out: ED50 (po)

| Compound | ED50 (mg/kg) |
| --- | --- |
| CC(CN(C)C)Nc1ccnc2cc(Cl)ccc12 (racemic) | 2.3 |
| C[C@H](CN(C)C)Nc1ccnc2cc(Cl)ccc12 [Example 33d] | 2.2 |
| Clc1ccc2c(N[C@@H]3CCC[C@H]3N3CCCC3)ccnc2c1 (relative stereo) [Example 11a] | 4.5 |
| CN(C)CCCNc1ccnc2cc(Cl)ccc12 | 2 |
| Clc1ccc2c(N[C@@H]3CCCC[C@H]3N3CCCC3)ccnc2c1 (racemic) | 6.4 |
| Clc1ccc2c(NC3CCN(Cc4ccccc4)CC3)ccnc2c1 | 5.3 |
| CN1CCCC(Nc2ccnc3cc(Cl)ccc23)C1 (racemic) [Example 19a] | 2.4 |
| CN1CCCC1CNc1ccnc2cc(Cl)ccc12 (stereo not shown) [Example 12a] | 4.8 |
| CCN(CC)C[C@@H](C)Nc1ccnc2cc(Cl)ccc12 [Example 33f] | 2.8 |
| CCN(CC)C[C@H](C)Nc1ccnc2cc(Cl)ccc12 [Example 33e] | 3.1 |
| CC1CC(C)(C)C(CNc2ccnc3cc(Cl)ccc23)C1N (stereo not shown) | 4.4 |
| CN(C)CCNc1ccnc2cc(Cl)ccc12 | 3.3 |
| Clc1ccc2c(NCCCN3CCCC3)ccnc2c1 | 4.6 |
| CCN(CC)[C@@H]1CCCC[C@H]1Nc1ccnc2cc(Cl)ccc12 (racemic) | 4.4 |
| C=CCN(C)CCNc1ccnc2cc(Cl)ccc12 | 5.9 |
| CCN(CC)CCCNc1ccnc2cc(Cl)ccc12 | 2 |
| CCN(CC)[C@@H]1CCC[C@H]1Nc1ccnc2cc(Cl)ccc12 (racemic) | 2.2 |
| CN1CCC(Nc2ccnc3cc(Cl)ccc23)C1 (racemic) [Example 33a] | 3.3 |
| Clc1ccc2c(NCCCN3CCCCC3)ccnc2c1 | 6.9 |
| CCN(CC)CCNc1ccnc2cc(Cl)ccc12 | 3.5 |
| C[C@@H](CN(C)C)Nc1ccnc2cc(Cl)ccc12 [Example 33c] | 1.9 |
| CCN(CC)CC(C)Nc1ccnc2cc(Cl)ccc12 (racemic) | 3.2 |

====

tested on: Plasmodium falciparum, chloroquine-sensitive strain Ro7 3; assay: activity against P. falciparum in vitro, strain Ro7 3; format: cell-based; settings: chloroquine-sensitive strain Ro7 3, 48 h-72 h, read-out: IC50 (50% growth inhibition)
Parameter IC50: see the listing below.
Observable: IC50 (ng/mL)

| Molecule | Measured target | Observable | Quantitative result |
| --- | --- | --- | --- |
| CCN(CC)CC(C)Nc1ccnc2cc(Cl)ccc12 (racemic) | Plasmodium falciparum, chloroquine-sensitive strain Ro7 3 | IC50 | 6 |
| Clc1ccc2c(NCCCN3CCCCC3)ccnc2c1 | Plasmodium falciparum, chloroquine-sensitive strain Ro7 3 | IC50 | 7 |
| CC1CCCCN1CCNc1ccnc2cc(Cl)ccc12 (racemic) | Plasmodium falciparum, chloroquine-sensitive strain Ro7 3 | IC50 | 5 |
| CC1(C)CCCN(CCNc2ccnc3cc(Cl)ccc23)C1 | Plasmodium falciparum, chloroquine-sensitive strain Ro7 3 | IC50 | 5 |
| CCN1CCCC1CNc1ccnc2cc(Cl)ccc12 (stereo not drawn) | Plasmodium falciparum, chloroquine-sensitive strain Ro7 3 | IC50 | 7 |
| CC(CN1CCCC1)Nc1ccnc2cc(Cl)ccc12 (racemic) | Plasmodium falciparum, chloroquine-sensitive strain Ro7 3 | IC50 | 4 |
| CCN(CC)CCNc1ccnc2cc(C(F)(F)F)ccc12 | Plasmodium falciparum, chloroquine-sensitive strain Ro7 3 | IC50 | 28 |
| Clc1ccc2c(NCCN3CC4CCC(CC4)C3)ccnc2c1 | Plasmodium falciparum, chloroquine-sensitive strain Ro7 3 | IC50 | 7 |
| CN1CCC(Nc2ccnc3cc(Cl)ccc23)C1 (racemic) [Example 33a] | Plasmodium falciparum, chloroquine-sensitive strain Ro7 3 | IC50 | 5 |
| CC1CCC(C)N1CCNc1ccnc2cc(Cl)ccc12 (stereo not drawn) | Plasmodium falciparum, chloroquine-sensitive strain Ro7 3 | IC50 | 11 |
| CC1CCCN(CCNc2ccnc3cc(Cl)ccc23)C1 (racemic) | Plasmodium falciparum, chloroquine-sensitive strain Ro7 3 | IC50 | 4 |
| Clc1ccc2c(NCCCN3CCCC3)ccnc2c1 | Plasmodium falciparum, chloroquine-sensitive strain Ro7 3 | IC50 | 6 |
| CC(C)(CN1CCCC1)Nc1ccnc2cc(Cl)ccc12 | Plasmodium falciparum, chloroquine-sensitive strain Ro7 3 | IC50 | 30 |
| CN(C)C(C)(C)CNc1ccnc2cc(Cl)ccc12 [Example 33b] | Plasmodium falciparum, chloroquine-sensitive strain Ro7 3 | IC50 | 4 |
| CC(C)(CN1CCCCC1)Nc1ccnc2cc(Cl)ccc12 | Plasmodium falciparum, chloroquine-sensitive strain Ro7 3 | IC50 | 4 |
| CCN(CC)[C@@H]1CCCC[C@H]1Nc1ccnc2cc(Cl)ccc12 (racemic) | Plasmodium falciparum, chloroquine-sensitive strain Ro7 3 | IC50 | 11 |
| CC(CN1CCCCC1)Nc1ccnc2cc(Cl)ccc12 (racemic) | Plasmodium falciparum, chloroquine-sensitive strain Ro7 3 | IC50 | 4 |
| Clc1ccc2c(NC3CCN(Cc4ccccc4)CC3)ccnc2c1 | Plasmodium falciparum, chloroquine-sensitive strain Ro7 3 | IC50 | 3 |
| Clc1ccc2c(N[C@@H]3CCCC[C@H]3N3CCCC3)ccnc2c1 (racemic) | Plasmodium falciparum, chloroquine-sensitive strain Ro7 3 | IC50 | 7 |
| CC(CN(C)C)Nc1ccnc2cc(Cl)ccc12 (racemic) | Plasmodium falciparum, chloroquine-sensitive strain Ro7 3 | IC50 | 5 |
| CC1CCN(CCNc2ccnc3cc(Cl)ccc23)CC1 | Plasmodium falciparum, chloroquine-sensitive strain Ro7 3 | IC50 | 4 |
| C[C@@H]1CCC[C@H](C)N1CCNc1ccnc2cc(Cl)ccc12 | Plasmodium falciparum, chloroquine-sensitive strain Ro7 3 | IC50 | 5 |
| C=CCN(C)CCNc1ccnc2cc(Cl)ccc12 | Plasmodium falciparum, chloroquine-sensitive strain Ro7 3 | IC50 | 10 |
| CCN(CC)[C@@H]1CCC[C@H]1Nc1ccnc2cc(Cl)ccc12 (racemic) | Plasmodium falciparum, chloroquine-sensitive strain Ro7 3 | IC50 | 5 |
| CC1CC(C)CN(CCNc2ccnc3cc(Cl)ccc23)C1 (stereo not drawn) | Plasmodium falciparum, chloroquine-sensitive strain Ro7 3 | IC50 | 3 |
| CC1CC(C)(C)C(CNc2ccnc3cc(Cl)ccc23)C1N (stereo not drawn) | Plasmodium falciparum, chloroquine-sensitive strain Ro7 3 | IC50 | 7 |
| CN(C)CCNc1ccnc2cc(C(F)(F)F)ccc12 | Plasmodium falciparum, chloroquine-sensitive strain Ro7 3 | IC50 | 11 |
| CN1CCCC(Nc2ccnc3cc(Cl)ccc23)C1 (racemic) [Example 19a] | Plasmodium falciparum, chloroquine-sensitive strain Ro7 3 | IC50 | 5 |
| Clc1ccc2c(N[C@@H]3CCC[C@H]3N3CCCC3)ccnc2c1 (relative stereo) [Example 11a] | Plasmodium falciparum, chloroquine-sensitive strain Ro7 3 | IC50 | 4 |
| CN1CCCC1CNc1ccnc2cc(Cl)ccc12 (stereo not drawn) [Example 12a] | Plasmodium falciparum, chloroquine-sensitive strain Ro7 3 | IC50 | 7 |
| Clc1ccc2c(NCCN3CCCCC3)ccnc2c1 | Plasmodium falciparum, chloroquine-sensitive strain Ro7 3 | IC50 | 4 |
| CCC1CCCCN1CCNc1ccnc2cc(Cl)ccc12 (racemic) | Plasmodium falciparum, chloroquine-sensitive strain Ro7 3 | IC50 | 3 |
| Clc1ccc2c(NCCN3CCC4CCCCC43)ccnc2c1 (stereo not drawn) | Plasmodium falciparum, chloroquine-sensitive strain Ro7 3 | IC50 | 5 |
